The reported numbers originate from paper PMC8421423.

Target: Akt3 (Homo sapiens, UniProt Q9Y243)
Sequence (Q9Y243 whole entry): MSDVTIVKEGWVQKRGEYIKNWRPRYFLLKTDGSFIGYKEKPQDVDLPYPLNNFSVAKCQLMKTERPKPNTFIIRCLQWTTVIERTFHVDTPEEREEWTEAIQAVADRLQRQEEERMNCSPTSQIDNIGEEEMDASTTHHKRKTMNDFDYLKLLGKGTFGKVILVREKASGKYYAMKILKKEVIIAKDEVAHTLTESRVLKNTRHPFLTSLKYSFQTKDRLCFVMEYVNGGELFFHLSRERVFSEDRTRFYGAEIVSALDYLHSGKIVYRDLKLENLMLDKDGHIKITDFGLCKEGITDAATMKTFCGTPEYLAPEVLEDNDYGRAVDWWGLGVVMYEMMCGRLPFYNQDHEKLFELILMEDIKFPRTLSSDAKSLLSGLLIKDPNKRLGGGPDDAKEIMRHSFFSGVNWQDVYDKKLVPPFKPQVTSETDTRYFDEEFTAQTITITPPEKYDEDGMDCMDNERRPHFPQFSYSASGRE
Assay: STK HTRF KinEASE activity-based assay (IC50)
Conditions: HTRF IC50 Akt3, individual determinations, single replicates
Entries and their IC50
resultType: IC50

>>> result("C=CC(=O)Nc1ccc2[nH]c(=O)n(C3CCN(Cc4ccc(-c5ncc(CN6CCCC6)cc5-c5ccccc5)cc4)CC3)c2c1 [compound 7]")
"> 20 µM"
>>> result("C=CC(=O)Nc1ccc2[nH]c(=O)n(C3CCN(Cc4ccc(-c5ncc(C(=O)N6CCCC6)cc5-c5ccccc5)cc4)CC3)c2c1 [compound 8]")
"> 20 µM"

---

Biological target: Akt1 (Homo sapiens, UniProt P31749)
Sequence (P31749 whole entry): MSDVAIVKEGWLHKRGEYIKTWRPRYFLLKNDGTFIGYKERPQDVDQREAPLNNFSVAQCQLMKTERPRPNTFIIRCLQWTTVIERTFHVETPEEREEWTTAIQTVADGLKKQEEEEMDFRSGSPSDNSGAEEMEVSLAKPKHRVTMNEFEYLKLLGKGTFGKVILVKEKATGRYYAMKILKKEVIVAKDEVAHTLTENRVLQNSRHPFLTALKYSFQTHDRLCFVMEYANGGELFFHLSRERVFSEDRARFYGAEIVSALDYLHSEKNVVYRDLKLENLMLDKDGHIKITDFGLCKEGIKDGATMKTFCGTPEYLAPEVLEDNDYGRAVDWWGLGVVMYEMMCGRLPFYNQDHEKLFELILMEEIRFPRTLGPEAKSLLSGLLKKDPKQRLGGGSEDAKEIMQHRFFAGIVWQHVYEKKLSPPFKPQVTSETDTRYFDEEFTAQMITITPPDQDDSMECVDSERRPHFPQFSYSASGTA
Assay: PhosphoSens continuous fluorometric kinetic enzyme assay
Settings: Ki Akt1, Mean, mean of replicates
resultType: Ki (nM)

>>> numericvalue("C=CC(=O)Nc1ccc2[nH]c(=O)n(C3CCN(Cc4ccc(-c5ncccc5-c5ccccc5)cc4)CC3)c2c1")
5.77
>>> numericvalue("C=CC(=O)Nc1ccc2[nH]c(=O)n(C3CCN(Cc4ccc(-c5ncc(C(=O)Nc6cccc(N)c6)cc5-c5ccccc5)cc4)CC3)c2c1")
6.62
>>> numericvalue("C=CC(=O)Nc1ccc2[nH]c(=O)n(C3CCN(Cc4ccc(-c5ncc(C(=O)Nc6cccnc6)cc5-c5ccccc5)cc4)CC3)c2c1")
8.74
>>> numericvalue("C=CC(=O)Nc1ccc2[nH]c(=O)n(C3CCN(Cc4ccc(-c5ncc(C(=O)Nc6cnn(C)c6)cc5-c5ccccc5)cc4)CC3)c2c1")
8.12
